Recorded values, source the Human Domainome abundance scans (Beltran et al. 2025).

B1: Protein S100-G, residues 1 to 79; numbered along this chain, P02633 (parent)
chain: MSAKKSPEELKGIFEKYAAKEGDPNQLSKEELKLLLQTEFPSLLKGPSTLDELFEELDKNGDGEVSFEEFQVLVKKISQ

Variants of: B1
protocol.details: abundance fitness (aPCA) (normalised: wild type 0, dead -1); higher = more abundant; growth selection in yeast, the domain comes from the species named
condition.summary: Bos taurus
Assignment: determine reported abundance fitness for the given variants.
A bare number is all that is needed in reply.

Input line: Can you share its abundance fitness? I mean this variant: E56T
Output line: 0.001

Input line: Can you share its abundance fitness? I mean this variant: L57N
Output line: -0.042

Input line: Can you share its abundance fitness? I mean this variant: Q79I
Output line: -0.346

Input line: Can you share its abundance fitness? I mean this variant: N25T
Output line: -0.006

Input line: Can you share its abundance fitness? I mean this variant: F40E
Output line: -0.158

Input line: Can you share its abundance fitness? I mean this variant: L57M
Output line: 0.054

Input line: Can you share its abundance fitness? I mean this variant: K16Y
Output line: -0.102

Input line: Can you share its abundance fitness? I mean this variant: K33I
Output line: -0.051

Input line: Can you share its abundance fitness? I mean this variant: E52Y
Output line: -0.108

Input line: Can you share its abundance fitness? I mean this variant: F67I
Output line: -0.161

Input line: Can you share its abundance fitness? I mean this variant: F67H
Output line: -0.12
